assay.summary: In vitro human microsomal stability assay
Format: in vitro ADME
assay.context: human, 0.5 h, 0.5 μM, pH 7.4
measurement.kind: HUMAN MICROSOMAL STABILITY (% REMAINING AFTER 30 MINUTES) (%)
Report as a plain number; the unit % is understood.

Fill blank: measured HUMAN MICROSOMAL STABILITY (% REMAINING AFTER 30 MINUTES) of the molecule OC(c1ccccn1)C1(c2ccc(F)c(F)c2)CCCO1 (stereo not drawn) [Example 109] is ____.
45

Fill blank: measured HUMAN MICROSOMAL STABILITY (% REMAINING AFTER 30 MINUTES) of the molecule OC(c1ccccn1)C1(c2ccc(Cl)c(Cl)c2)CCOCC1 (stereo not drawn) [Example 59] is ____.
45

Fill blank: measured HUMAN MICROSOMAL STABILITY (% REMAINING AFTER 30 MINUTES) of the molecule OC(c1ccccn1)C1(C2=CCC(F)(F)CC2)CCC1 (stereo not drawn) [Example 260] is ____.
12

Fill blank: measured HUMAN MICROSOMAL STABILITY (% REMAINING AFTER 30 MINUTES) of the molecule OC(C1CCc2cccnc21)C1(c2ccc(OC(F)(F)F)cc2)CCC1 (stereo not drawn) [Example 176] is ____.
20

Fill blank: measured HUMAN MICROSOMAL STABILITY (% REMAINING AFTER 30 MINUTES) of the molecule O=C1CC(c2ccc(Cl)c(Cl)c2)([C@H](O)c2ccccn2)C1 [Example 117] is ____.
18

Fill blank: measured HUMAN MICROSOMAL STABILITY (% REMAINING AFTER 30 MINUTES) of the molecule CC1(O)CC(c2cccc(C(F)(F)F)c2)(C(O)c2ccccn2)C1 (single isomer, unassigned) [Example 236] is ____.
54

Fill blank: measured HUMAN MICROSOMAL STABILITY (% REMAINING AFTER 30 MINUTES) of the molecule CC(c1ccccc1Cl)C1(C(O)c2ccccn2)CCC1 (stereo not drawn) [Example 50] is ____.
0.08

Where do these numbers come from? They come from patent US8772500B2.
